- Tested on: Staphylococcus aureus ATCC BAA-1556, USA300 MRSA
- assay_explanation: microbe, parasite or virus in culture
- Assay type: cell-based
- measurement_setup: ATCC BAA-1556
- Protocol: Pre-formulated compound solution was diluted in 100% DMSO to prepare a 1.6 mg/mL working stock solution. […] The concentration range was 0.032 to 32 μg/mL.
Square brackets hold non-standard residues; d marks the D form. Peptide text beside a SMILES is read from it. * marks the point of attachment. NH(1-CH2NMe2-cBu) = CN(C)CC1(N*)CCC1; Gly(octyl) = CCCCCCCC[C@H](N)C(=O)O; Oxazole4CO(2-Me) = Cc1nc(C(=O)*)co1; hCha = N[C@@H](CCC1CCCCC1)C(=O)O; NHCH2CH2NHMe = CNCCN*; Aib = CC(C)(N)C(=O)O; βAla = NCCC(=O)O

# molecule, MIC, µg/mL
data = [
    ("Cc1nc(C(=O)N2CCCC2C(=O)N[C@@H](CCC2CCCCC2)C(=O)N[C@@H](CC(C)C)C(=O)NC(C)(C)C(=O)N[C@@H](CC(C)C)C(=O)N[C@@H](CC(C)C)C(=O)NC(C)(C)C(=O)NC(C)(C)C(=O)NCCC(=O)NCCN)co1 (stereo in doubt)", 16),
    ("Cc1nc(C(=O)N2CCC[C@H]2C(=O)N[C@@H](CCC2CCCCC2)C(=O)N[C@@H](CC(C)C)C(=O)NC(C)(C)C(=O)N[C@@H](CC(C)C)C(=O)N[C@@H](CC(C)C)C(=O)NC(C)(C)C(=O)NC(C)(C)C(=O)NCCC(=O)NC2(CN(C)C)CCC2)co1 [Compound 6025] ({Oxazole4CO(2-Me)}-P[hCha]L[Aib]LL[Aib][Aib][βAla]-{NH(1-CH2NMe2-cBu)})", 4),
    ("CCCCCCCC[C@H](NC(=O)[C@@H]1CCCN1C(=O)c1coc(C)n1)C(=O)N[C@@H](CC(C)C)C(=O)NC(C)(C)C(=O)N[C@@H](CC(C)C)C(=O)N[C@@H](CC(C)C)C(=O)NC(C)(C)C(=O)NC(C)(C)C(=O)NCCC(=O)NCCNC [Compound 7058] ({Oxazole4CO(2-Me)}-P[Gly(octyl)]L[Aib]LL[Aib][Aib][βAla]-NHCH2CH2NHMe)", 4),
]

---

Listed molecules paired with reported IC50 at 68 h
- assay_explanation: Cytotoxicity assay (Alamar Blue) on L6-cells
- Type: cell-based, rat
- measurement_setup: rat
Square brackets hold non-standard residues; d marks the D form. Peptide text beside a SMILES is read from it. * marks the point of attachment. NH((S)CH(Me)CH2NMe2) = C[C@@H](CN(C)C)N*; Gly(octyl) = CCCCCCCC[C@H](N)C(=O)O; Oxazole4CO(2-Me) = Cc1nc(C(=O)*)co1; Pyrrole2CO = O=C(c1ccc[nH]1)*; X6 = O=C(c1ccnc2cc(Cl)ccc12)*; Aib = CC(C)(N)C(=O)O; βAla = NCCC(=O)O
value_kind: IC50 at 68 h (nM)

# molecule, numeric_readout
rows = [
    ("CCCCCCCC[C@H](NC(=O)[C@@H]1CCCN1C(=O)c1ccc[nH]1)C(=O)N[C@@H](CC(C)C)C(=O)NC(C)(C)C(=O)N[C@@H](CC(C)C)C(=O)N[C@@H](CC(C)C)C(=O)NC(C)(C)C(=O)NC(C)(C)C(=O)NCCC(=O)N[C@@H](C)CN(C)C [Compound 5939] (Pyrrole2CO-P[Gly(octyl)]L[Aib]LL[Aib][Aib][βAla]-{NH((S)CH(Me)CH2NMe2)})", 611),
    ("CCCCCCCC[C@H](NC(=O)[C@@H]1CCCN1C(=O)c1coc(C)n1)C(=O)N[C@@H](CC(C)C)C(=O)NC(C)(C)C(=O)N[C@@H](CC(C)C)C(=O)N[C@@H](CC(C)C)C(=O)NC(C)(C)C(=O)NC(C)(C)C(=O)NCCC(=O)N[C@@H](C)CN(C)C [Compound 5905] ({Oxazole4CO(2-Me)}-P[Gly(octyl)]L[Aib]LL[Aib][Aib][βAla]-{NH((S)CH(Me)CH2NMe2)})", 852),
    ("Cc1nc(C(=O)N2CCC[C@H]2C(=O)N[C@@H](Cc2c[nH]c3ccccc23)C(=O)N[C@@H](CC(C)C)C(=O)NC(C)(C)C(=O)N[C@@H](CC(C)C)C(=O)N[C@@H](CC(C)C)C(=O)NC(C)(C)C(=O)NC(C)(C)C(=O)NCCC(=O)NC2(CN(C)C)CCC2)co1 [Compound 6779] (HELM PEPTIDE1{[Cc1nc(C(=O)[*:2])co1].P.W.L.[Aib].L.L.[Aib].[Aib].[bAla].[CN(C)CC1(N[*:1])CCC1]}$$$$V2.0)", 6680),
    ("CCCCCCCC[C@H](NC(=O)[C@@H]1CCCN1C(=O)c1ccnc2cc(Cl)ccc12)C(=O)N[C@@H](CC(C)C)C(=O)NC(C)(C)C(=O)N[C@@H](CC(C)C)C(=O)N[C@@H](CC(C)C)C(=O)NC(C)(C)C(=O)NC(C)(C)C(=O)NCCC(=O)N[C@@H](C)CN(C)C [Compound 5768] (X6-P[Gly(octyl)]L[Aib]LL[Aib][Aib][βAla]-{NH((S)CH(Me)CH2NMe2)})", 627),
]
